In this section, each of the molecules is paired with its reported IC50.
assayedSystem: TAK1-TAB1 fusion protein (Homo sapiens)
Construct: purchased Carna
Sequence (O43318 with tags, fused parts or gaps limits assumed): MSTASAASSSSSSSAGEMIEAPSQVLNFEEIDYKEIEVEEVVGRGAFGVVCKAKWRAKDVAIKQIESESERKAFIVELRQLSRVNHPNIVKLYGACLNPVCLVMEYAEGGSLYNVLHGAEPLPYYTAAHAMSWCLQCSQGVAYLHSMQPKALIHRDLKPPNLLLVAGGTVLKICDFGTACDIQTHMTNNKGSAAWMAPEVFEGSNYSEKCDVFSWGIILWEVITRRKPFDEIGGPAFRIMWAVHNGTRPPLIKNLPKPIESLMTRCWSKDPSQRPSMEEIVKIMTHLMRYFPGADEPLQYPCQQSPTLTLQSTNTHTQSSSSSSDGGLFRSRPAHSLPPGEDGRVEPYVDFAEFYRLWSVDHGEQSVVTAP
testName: TAK1 biochemical assay (AlphaScreen, GST-MAP2K7 substrate)
measurementConditions: TAK1-TAB1 fusion protein, GST-MAP2K7 substrate; read-out: mean TAK1 IC50 (Col. A)
Where a name gives a salt, the structure may show the parent alone.
valueKind: IC50

>>> measurement("Nc1ncc(-c2cnn(C3CCNCC3)c2)c2cc(-c3ccoc3)oc12 [Example 21]")
"1000 to 10000 nM"
>>> measurement("CC(=O)N1CCC(n2cc(-c3cnc(N)c4oc(-c5csc6cc(=O)n(C)cc56)cc34)cn2)CC1 [Example 258, trifluoroacetic Acid Salt]")
"1000 to 10000 nM"
>>> measurement("CC(=O)N1CCC(n2cc(-c3cnc(N)c4oc(-c5cccc6c5CC(=O)N6)cc34)cn2)CC1 [Example 227]")
"100 to 1000 nM"
>>> measurement("CC(=O)N1CCC(n2cc(-c3cnc(N(C)C)c4oc(-c5csc6cnccc56)cc34)cn2)CC1 [Example 276, trifluoroacetic acid salt]")
"1000 to 10000 nM"
>>> measurement("CC(=O)N1CCC(n2cc(-c3cnc(N)c4oc(-c5cccc(C(F)(F)F)c5)cc34)cn2)CC1 [Example 185]")
"1000 to 10000 nM"
>>> measurement("CCCOc1cccc(-c2cc3c(-c4cnn(C5CCN(C(C)=O)CC5)c4)cnc(N)c3o2)c1 [Example 181]")
"> 10000 nM"
>>> measurement("COC(=O)c1cc2cccc(-c3cc4c(-c5cnn(C6CCNCC6)c5)cnc(N)c4o3)c2s1 [Example 48]")
"100 to 1000 nM"
